// provenance: patent US20250108139A1

# Assay remarks: Determination of Log P (n-octanol/water partition)
# Assay type: physicochemical
# Experimental setup: 177Lu-labeled compound, mean of three tubes
Reported endpoint: logP
Could you keep your reply to the number by itself?

Req: What does the data say about its logP? Entry: O=C(O)CC[C@H](NC(=O)NC(CCCCNC(=O)[C@H](Cc1ccc2ccccc2c1)NC(=O)c1ccc2c(c1)CCN(C(=O)CNC(=O)c1cc(NC(=O)CNC(=O)CN3CCN(CC(=O)O)CCN(CC(=O)O)CCN(CC(=O)O)CC3)cc(C(=O)NCC(=O)N3CCc4cc(C(=O)N[C@@H](Cc5ccc6ccccc6c5)C(=O)NCCCC[C@H](NC(=O)N[C@@H](CCC(=O)O)C(=O)O)C(=O)O)ccc4C3)c1)C2)C(=O)O)C(=O)O (stereo partly shown)
Resp: -1.79

----------
Can you tell me Kidney uptake for the items I'm about to list?
# Test system: PSMA-positive 22rv1 tumor-bearing mouse
# Assay remarks: 177Lu labeling and animal biodistribution experiment, gamma counter
# Assay type: in vivo
# Experimental setup: 177Lu-labeled compound, 24 h after tail vein injection, n = 2
# Experimental: Distribution in PSMA-positive tumor-bearing mouse tissues: Tumor-bearing animals (purchased from Shanghai Alamo Pharmaceutical Technology Co., Ltd.) were subcutaneously inoculated with 3×10^6 22rv1 cells (in 50% Matrigel, Corning) into the right shoulder region of 6-9 week old (Balb/c Nude) mouse. […] Blood was collected through the abdominal aorta and 100 μL was immediately quantified into designated centrifuge tubes (weighed). […] Samples were measured on the day of collection. […]
State just the number; it will be interpreted in % ID/g.

Req: Notebook: pull reported Kidney uptake for PSMA-positive 22rv1 tumor-bearing mouse, entry O=C(O)CC[C@H](NC(=O)N[C@@H](CCCCNC(=O)[C@H](Cc1ccc2ccccc2c1)NC(=O)c1ccc2c(c1)CCN(C(=O)CCC(=O)NCCCC[C@H](NC(=O)CCC(=O)N1CCc3cc(C(=O)N[C@@H](Cc4ccc5ccccc5c4)C(=O)NCCCC[C@H](NC(=O)N[C@@H](CCC(=O)O)C(=O)O)C(=O)O)ccc3C1)C(=O)NCCNC(=O)CN1CCN(CC(=O)O)CCN(CC(=O)O)CCN(CC(=O)O)CC1)C2)C(=O)O)C(=O)O
Resp: 87.105

Req: Also, O=C(O)CC[C@H](NC(=O)NC(CCCCNC(=O)[C@H](Cc1ccc2ccccc2c1)NC(=O)[C@H]1CC[C@H](NC(=O)COCCOCCNC(=O)c2cc(NC(=O)CCCCCCCNC(=O)CN3CCN(CC(=O)O)CCN(CC(=O)O)CCN(CC(=O)O)CC3)cc(C(=O)NCCOCCOCC(=O)N[C@H]3CC[C@H](C(=O)N[C@@H](Cc4ccc5ccccc5c4)C(=O)NCCCC[C@H](NC(=O)N[C@@H](CCC(=O)O)C(=O)O)C(=O)O)CC3)c2)CC1)C(=O)O)C(=O)O (stereo partly drawn) please.
Resp: 8.76

Req: Also, O=C(O)CC[C@H](NC(=O)N[C@@H](CCCCNC(=O)[C@H](Cc1ccc2ccccc2c1)NC(=O)c1ccc2c(c1)CCN(C(=O)CN1CCN(CC(=O)O)CCN(CC(=O)O)CCN(CC(=O)O)CC1)C2)C(=O)O)C(=O)O [Compound E-3, reference compound] please.
Resp: 2.01

----------
Can you tell me Liver uptake for the items I'm about to list?
# Tested on: PSMA-positive 22rv1 tumor-bearing mouse
# Assay remarks: 177Lu labeling and animal biodistribution experiment, gamma counter
# Assay type: in vivo
# Experimental setup: 177Lu-labeled compound, 24 h after tail vein injection, n = 2
State just the number; it will be interpreted in % ID/g.

Req: What does the data say about its Liver uptake? Entry: O=C(O)CC[C@H](NC(=O)NC(CCCCNC(=O)[C@H](Cc1ccc2ccccc2c1)NC(=O)[C@H]1CC[C@H](NC(=O)CCC(=O)NCCCC[C@H](NC(=O)CCC(=O)N[C@H]2CC[C@H](C(=O)N[C@@H](Cc3ccc4ccccc4c3)C(=O)NCCCC[C@H](NC(=O)N[C@@H](CCC(=O)O)C(=O)O)C(=O)O)CC2)C(=O)NCCNC(=O)CN2CCN(CC(=O)O)CCN(CC(=O)O)CCN(CC(=O)O)CC2)CC1)C(=O)O)C(=O)O (some centres unmarked)
Resp: 0.185

Req: Also, O=C(O)CC[C@H](NC(=O)N[C@@H](CCCCNC(=O)[C@H](Cc1ccc2ccccc2c1)NC(=O)c1ccc2c(c1)CCN(C(=O)CN1CCN(CC(=O)O)CCN(CC(=O)O)CCN(CC(=O)O)CC1)C2)C(=O)O)C(=O)O [Compound E-3, reference compound] please.
Resp: 0.09

Req: Also, O=C(O)CC[C@H](NC(=O)N[C@@H](CCCCNC(=O)[C@H](Cc1ccc2ccccc2c1)NC(=O)c1ccc2c(c1)CCN(C(=O)CCC(=O)NCC(=O)N1CN(C(=O)CNC(=O)CCC(=O)N3CCc4cc(C(=O)N[C@@H](Cc5ccc6ccccc6c5)C(=O)NCCCC[C@H](NC(=O)N[C@@H](CCC(=O)O)C(=O)O)C(=O)O)ccc4C3)CN(C(=O)CNC(=O)CN3CCN(CC(=O)O)CCN(CC(=O)O)CCN(CC(=O)O)CC3)C1)C2)C(=O)O)C(=O)O please.
Resp: 0.37

Req: Also, O=C(O)CC[C@H](NC(=O)NC(CCCCNC(=O)[C@H](Cc1ccc2ccccc2c1)NC(=O)c1ccc(C2CCN(C(=O)CNC(=O)c3cc(NC(=O)COCCOCCNC(=O)CN4CCN(CC(=O)O)CCN(CC(=O)O)CCN(CC(=O)O)CC4)cc(C(=O)NCC(=O)N4CCC(c5ccc(C(=O)N[C@@H](Cc6ccc7ccccc7c6)C(=O)NCCCC[C@H](NC(=O)N[C@@H](CCC(=O)O)C(=O)O)C(=O)O)cc5)CC4)c3)CC2)cc1)C(=O)O)C(=O)O (some centres unmarked) please.
Resp: 3.645

Req: Also, O=C(O)CC[C@H](NC(=O)NC(CCCCNC(=O)[C@H](Cc1ccc2ccccc2c1)NC(=O)c1ccc(C2CCN(C(=O)CCC(=O)NCCCC[C@H](NC(=O)CCC(=O)N3CCC(c4ccc(C(=O)N[C@@H](Cc5ccc6ccccc6c5)C(=O)NCCCC[C@H](NC(=O)N[C@@H](CCC(=O)O)C(=O)O)C(=O)O)cc4)CC3)C(=O)NCCNC(=O)CN3CCN(CC(=O)O)CCN(CC(=O)O)CCN(CC(=O)O)CC3)CC2)cc1)C(=O)O)C(=O)O (some centres unmarked) please.
Resp: 1.020

----------
Each entry below carries its measured Kd, system: UniProtKB Q04609.
Sequence (Q04609 whole entry): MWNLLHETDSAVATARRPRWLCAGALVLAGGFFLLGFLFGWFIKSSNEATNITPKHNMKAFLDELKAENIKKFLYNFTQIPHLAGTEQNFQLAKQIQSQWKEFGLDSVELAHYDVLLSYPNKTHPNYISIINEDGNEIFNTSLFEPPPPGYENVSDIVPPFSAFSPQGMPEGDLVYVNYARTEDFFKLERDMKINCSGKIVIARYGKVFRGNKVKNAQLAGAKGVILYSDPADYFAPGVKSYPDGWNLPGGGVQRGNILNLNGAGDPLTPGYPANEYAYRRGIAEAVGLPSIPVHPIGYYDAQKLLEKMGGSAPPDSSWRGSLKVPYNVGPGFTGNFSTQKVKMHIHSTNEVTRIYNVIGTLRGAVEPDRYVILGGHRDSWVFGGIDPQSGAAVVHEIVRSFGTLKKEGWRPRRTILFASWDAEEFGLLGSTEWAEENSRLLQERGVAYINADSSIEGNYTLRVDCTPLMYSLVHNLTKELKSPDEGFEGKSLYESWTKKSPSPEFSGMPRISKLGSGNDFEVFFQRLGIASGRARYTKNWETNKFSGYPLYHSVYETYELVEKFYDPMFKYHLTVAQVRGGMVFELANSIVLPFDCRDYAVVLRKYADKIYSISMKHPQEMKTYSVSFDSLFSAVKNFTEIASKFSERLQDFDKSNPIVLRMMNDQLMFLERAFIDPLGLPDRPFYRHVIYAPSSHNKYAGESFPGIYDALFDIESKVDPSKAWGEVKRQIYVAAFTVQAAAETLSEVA

Req: What does the data say about its Kd? Entry: O=C(O)CC[C@H](NC(=O)N[C@@H](CCCCNC(=O)[C@H](Cc1ccc2ccccc2c1)NC(=O)c1ccc(C2CCN(C(=O)CCC(=O)NCC(=O)N3CN(C(=O)CNC(=O)CCC(=O)N4CCC(c5ccc(C(=O)N[C@@H](Cc6ccc7ccccc7c6)C(=O)NCCCC[C@H](NC(=O)N[C@@H](CCC(=O)O)C(=O)O)C(=O)O)cc5)CC4)CN(C(=O)CNC(=O)CN4CCN(CC(=O)O)CCN(CC(=O)O)CCN(CC(=O)O)CC4)C3)CC2)cc1)C(=O)O)C(=O)O
Resp: < 10 nM

Req: Also, O=C(O)CC[C@H](NC(=O)N[C@@H](CCCCNC(=O)[C@H](Cc1ccc2ccccc2c1)NC(=O)[C@H]1CC[C@H](CNC(=O)CN2CCN(CC(=O)O)CCN(CC(=O)O)CCN(CC(=O)O)CC2)CC1)C(=O)O)C(=O)O [PSMA-617, reference compound] please.
Resp: < 10 nM

Req: Also, O=C(O)CC[C@H](NC(=O)N[C@@H](CCCCNC(=O)[C@H](Cc1ccc2ccccc2c1)NC(=O)[C@H]1CC[C@H](CNC(=O)c2cc(NC(=O)CN3CCN(CC(=O)O)CCN(CC(=O)O)CCN(CC(=O)O)CC3)cc(C(=O)NC[C@H]3CC[C@H](C(=O)N[C@@H](Cc4ccc5ccccc5c4)C(=O)NCCCC[C@H](NC(=O)N[C@@H](CCC(=O)O)C(=O)O)C(=O)O)CC3)c2)CC1)C(=O)O)C(=O)O please.
Resp: < 10 nM

Req: Also, O=C(O)CC[C@H](NC(=O)N[C@@H](CCCCNC(=O)[C@H](Cc1ccc2ccccc2c1)NC(=O)c1ccc2c(c1)CCN(C(=O)CN1CCN(CC(=O)O)CCN(CC(=O)O)CCN(CC(=O)O)CC1)C2)C(=O)O)C(=O)O [Compound E-3, reference compound] please.
Resp: < 10 nM

----------
Can you tell me plasma protein binding ratio (albumin binding ratio) for the items I'm about to list?
# Test system: albumin in rat plasma
# Assay remarks: Plasma protein binding (PPB) test by ultrafiltration
# Type: in vitro ADME
# Experimental setup: 177Lu-labeled compound
State just the number; it will be interpreted in %.

Req: What does the data say about its plasma protein binding ratio (albumin binding ratio)? Entry: O=C(O)CC[C@H](NC(=O)NC(CCCCNC(=O)[C@H](Cc1ccc2ccccc2c1)NC(=O)c1ccc2c(c1)CCN(C(=O)CNC(=O)c1cc(NC(=O)CNC(=O)CN3CCN(CC(=O)O)CCN(CC(=O)O)CCN(CC(=O)O)CC3)cc(C(=O)NCC(=O)N3CCc4cc(C(=O)N[C@@H](Cc5ccc6ccccc6c5)C(=O)NCCCC[C@H](NC(=O)N[C@@H](CCC(=O)O)C(=O)O)C(=O)O)ccc4C3)c1)C2)C(=O)O)C(=O)O (stereo partly drawn) [DB-19]
Resp: 59.07

Req: Also, O=C(O)CC[C@H](NC(=O)NC(CCCCNC(=O)[C@H](Cc1ccc2ccccc2c1)NC(=O)c1ccc2c(c1)CCN(C(=O)c1cc(NC(=O)CN3CCN(CC(=O)O)CCN(CC(=O)O)CCN(CC(=O)O)CC3)cc(C(=O)N3CCc4cc(C(=O)N[C@@H](Cc5ccc6ccccc6c5)C(=O)NCCCC[C@H](NC(=O)N[C@@H](CCC(=O)O)C(=O)O)C(=O)O)ccc4C3)c1)C2)C(=O)O)C(=O)O (stereo partly drawn) [DB-18] please.
Resp: 70.51

Req: Also, O=C(O)CC[C@H](NC(=O)NC(CCCCNC(=O)[C@H](Cc1ccc2ccccc2c1)NC(=O)[C@H]1CC[C@H](NC(=O)CCC(=O)NCC(=O)N2CN(C(=O)CNC(=O)CCC(=O)N[C@H]3CC[C@H](C(=O)N[C@@H](Cc4ccc5ccccc5c4)C(=O)NCCCC[C@H](NC(=O)N[C@@H](CCC(=O)O)C(=O)O)C(=O)O)CC3)CN(C(=O)CNC(=O)CN3CCN(CC(=O)O)CCN(CC(=O)O)CCN(CC(=O)O)CC3)C2)CC1)C(=O)O)C(=O)O (stereo partly drawn) [DB-13] please.
Resp: 90.84
